Provide the reported IC50 of each item.
target: Glucocorticoid receptor (Homo sapiens, UniProt P04150); assay: Antagonist activity at GR in human HepG2 cells assessed as inhibition of protein mediated-transcriptional activity by MMTV-promoter driven luciferase reporter gene assay
Note: unit nM is implicit; provide only the numeric part.

I would be grateful if you could share the reported IC50 for CC#C[C@]1(O)CC[C@H]2[C@@H]3CCc4cc(C(=O)Nc5cccnc5C)ccc4[C@H]3[C@@H](OCc3ccccc3Cl)C[C@@]21C .
1.4

I'd like to know its IC50. The compound in question is C=CCO[C@H]1C[C@@]2(C)[C@@H](CC[C@@]2(O)C#CC)[C@@H]2CCc3cc(C(=O)Nc4cccnc4C)ccc3[C@H]21
0.03

Reported IC50 for CC#C[C@]1(O)CC[C@H]2[C@@H]3CCc4cc(C(=O)Nc5ccncc5C)ccc4[C@H]3[C@@H](O)C[C@@]21C : what is it?
1360

Endpoint output: IC50 of CCCCC#C[C@]1(O)CC[C@H]2[C@@H]3CCc4cc(C(=O)Nc5cccnc5C)ccc4[C@H]3[C@@H](O)C[C@@]21C . Value?
2350

Form field: reported IC50 of Cc1ncccc1NC(=O)c1ccc2c(c1)CC[C@@H]1[C@@H]2[C@@H](O)C[C@@]2(C)[C@H]1CC[C@@]2(O)C#CC(C)C
37

Which measured IC50 value corresponds to CC#C[C@]1(O)CC[C@H]2[C@@H]3CCc4cc(C(=O)Nc5cccnc5C)ccc4[C@H]3[C@@H](OCc3cccc(Cl)c3)C[C@@]21C ?
0.9

For Cc1ncccc1NC(=O)c1ccc2c(c1)CC[C@@H]1[C@@H]2[C@@H](O)C[C@@]2(C)[C@H]1CC[C@@]2(O)C#Cc1ccccc1 , what is its reported IC50?
558

###

biological target: Glucocorticoid receptor (Homo sapiens, UniProt P04150); assay: Agonist activity at GR in human HepG2 cells assessed as protein mediated-transcriptional activity by MMTV-promoter driven luciferase reporter gene assay
Consider the following molecules; for each one, report its pEC50.
Recall that pEC50 is obtained by taking minus log10 of the concentration measured in molar.

Given the entry C=CCO[C@H]1C[C@@]2(C)[C@@H](CC[C@@]2(O)C#CC)[C@@H]2CCc3cc(C(=O)Nc4cccnc4C)ccc3[C@H]21 , what pEC50 was observed with Glucocorticoid receptor (Homo sapiens, UniProt P04150)?
9.96

Test system Glucocorticoid receptor (Homo sapiens, UniProt P04150); read-out pEC50; what value for CC#C[C@]1(O)CC[C@H]2[C@@H]3CCc4cc(C(=O)Nc5cccnc5C)ccc4C3=CC[C@@]21C ?
5.73

Fill in the recorded pEC50 for this molecule, with Glucocorticoid receptor (Homo sapiens, UniProt P04150) as test system: CC#C[C@]1(O)CC[C@H]2[C@@H]3CCc4cc(C(=O)Nc5ncccc5C)ccc4[C@H]3[C@@H](O)C[C@@]21C
6.55

###

target: Glucocorticoid receptor (Homo sapiens) (UniProt P04150); assay: Antagonist activity at GR in human HepG2 cells assessed as inhibition of protein mediated-transcriptional activity by MMTV-promoter driven luciferase reporter gene assay; type: cell-based
endpoint label: Efficacy (%)
Report as a plain number; the unit % is understood.

Look at this compound and give its reported Efficacy. Cc1ncccc1NC(=O)c1ccc2c(c1)CC[C@@H]1[C@@H]2[C@@H](O)C[C@@]2(C)[C@H]1CC[C@@]2(O)C#CC(C)C
39

Find the recorded Efficacy belonging to CC#C[C@]1(O)CC[C@H]2[C@@H]3CCc4cc(C(=O)Nc5cccnc5C)ccc4[C@H]3[C@@H](O)C[C@@]21C and report it.
46

Which Efficacy value is on record for Cc1ncccc1NC(=O)c1ccc2c(c1)CC[C@@H]1[C@@H]2[C@@H](O)C[C@@]2(C)[C@H]1CC[C@]2(C)O ?
112

Which value of Efficacy has been reported for Cc1ncccc1NC(=O)c1ccc2c(c1)CC[C@@H]1[C@@H]2[C@@H](O)C[C@@]2(C)[C@H]1CC[C@@]2(O)C#C[Si](C)(C)C in the records?
90

###

Target: UniProt:P04150
Sequence (whole entry): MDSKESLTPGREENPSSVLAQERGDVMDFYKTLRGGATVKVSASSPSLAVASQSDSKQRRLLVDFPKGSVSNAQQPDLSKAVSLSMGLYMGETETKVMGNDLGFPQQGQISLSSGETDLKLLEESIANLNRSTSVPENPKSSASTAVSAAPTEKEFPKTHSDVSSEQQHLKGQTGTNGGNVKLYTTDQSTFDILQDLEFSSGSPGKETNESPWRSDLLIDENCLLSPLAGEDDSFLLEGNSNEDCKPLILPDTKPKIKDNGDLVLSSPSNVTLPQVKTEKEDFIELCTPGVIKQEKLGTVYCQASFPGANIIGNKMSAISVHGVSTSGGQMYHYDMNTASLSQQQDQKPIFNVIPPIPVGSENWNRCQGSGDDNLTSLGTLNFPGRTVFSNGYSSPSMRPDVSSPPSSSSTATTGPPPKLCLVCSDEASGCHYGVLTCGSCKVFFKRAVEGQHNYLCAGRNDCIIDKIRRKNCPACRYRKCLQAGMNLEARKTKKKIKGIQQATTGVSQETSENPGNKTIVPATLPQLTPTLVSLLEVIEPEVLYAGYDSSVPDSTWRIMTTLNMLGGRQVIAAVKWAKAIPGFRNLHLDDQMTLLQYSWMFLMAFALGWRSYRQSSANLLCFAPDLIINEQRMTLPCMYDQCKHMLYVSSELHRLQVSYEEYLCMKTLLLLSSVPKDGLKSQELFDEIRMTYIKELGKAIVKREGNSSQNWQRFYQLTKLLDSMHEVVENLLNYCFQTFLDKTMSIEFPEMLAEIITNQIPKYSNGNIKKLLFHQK
Assay: Antagonist activity at GR in human HepG2 cells assessed as inhibition of protein mediated-transcriptional activity by MMTV-promoter driven luciferase reporter gene assay
Format: cell-based
Please respond with Y when measured Efficacy is strictly beneath 60%, and with N in all other cases.

In plain terms, does CC#C[C@]1(O)CC[C@H]2[C@@H]3CCc4cc(C(=O)Nc5cccnc5C)ccc4[C@H]3[C@H](O)C[C@@]21C come in under 60% for Efficacy?
Y

I wonder whether Cc1ncccc1NC(=O)c1ccc2c(c1)CC[C@@H]1[C@@H]2[C@@H](O)C[C@@]2(C)[C@H]1CC[C@@]2(O)C#Cc1ccccc1 has Efficacy below 60%. Can you tell?
Y

I wonder whether CC#C[C@]1(O)CC[C@H]2[C@@H]3CCc4cc(C(=O)Nc5cccnc5)ccc4[C@H]3[C@@H](O)C[C@@]21C has Efficacy below 60%. Can you tell?
Y

In plain terms, does CC#C[C@]1(O)CC[C@H]2[C@@H]3CCc4cc(C(=O)Nc5cnccc5C)ccc4[C@H]3[C@@H](O)C[C@@]21C come in under 60% for Efficacy?
N

Field: below-cutoff. Rule: recorded Efficacy strictly less than 60%. Subject: CC#C[C@]1(O)CC[C@H]2[C@@H]3CCc4cc(C(=O)Nc5ccncc5C)ccc4[C@H]3[C@@H](O)C[C@@]21C
Y

Confirm or reject: Efficacy of CC#C[C@]1(O)CC[C@H]2[C@@H]3CCc4cc(C(=O)Nc5cccnc5C)ccc4[C@H]3[C@@H](OC)C[C@@]21C lies strictly below 60%
N

Please check: Efficacy for C#C[C@]1(O)CC[C@H]2[C@@H]3CCc4cc(C(=O)Nc5cccnc5C)ccc4[C@H]3[C@@H](O)C[C@@]21C , strictly under 60% or not?
N

###

molecular target: Glucocorticoid receptor (Homo sapiens, UniProt P04150); assay: Antagonist activity at GR in human HepG2 cells assessed as inhibition of protein mediated-transcriptional activity by MMTV-promoter driven luciferase reporter gene assay
endpoint label: IC50 (nM)
Entry rule: numbers only, all in nM.

Entry CC#C[C@]1(O)CC[C@H]2[C@@H]3CCc4cc(C(=O)Nc5cccnc5C)ccc4[C@H]3[C@@H](OCc3ccc(Cl)cc3)C[C@@]21C has what IC50?
0.07

Which IC50 is reported for this molecule? CC#C[C@]1(O)CC[C@H]2[C@@H]3CCc4cc(C(=O)Nc5cccnc5C)ccc4[C@H]3[C@@H](O)C[C@@]21C
626

If you can, please state the reported IC50 value of CC#C[C@]1(O)CC[C@H]2[C@@H]3CCc4cc(C(=O)Nc5cccnc5C)ccc4[C@H]3[C@@H](OCc3ccccc3)C[C@@]21C .
0.4

What measured IC50 goes with CC#C[C@]1(O)CC[C@H]2[C@@H]3CCc4cc(C(=O)Nc5cccnc5)ccc4[C@H]3[C@@H](O)C[C@@]21C ?
455

Need IC50, item C=CCOC(=O)O[C@H]1C[C@@]2(C)[C@@H](CC[C@@]2(O)C#CC)[C@@H]2CCc3cc(C(=O)Nc4cccnc4C)ccc3[C@H]21
84

###

molecular target: Glucocorticoid receptor (Homo sapiens); experiment: Antagonist activity at GR in human HepG2 cells assessed as inhibition of protein mediated-transcriptional activity by MMTV-promoter driven luciferase reporter gene assay; type: cell-based
endpoint label: Efficacy
Your reply should be a number followed by the unit it is expressed in.

# get_value(readout='Efficacy', item= CC#C[C@]1(O)CC[C@H]2[C@@H]3CCc4cc(C(=O)Nc5cccnc5C)ccc4[C@H]3[C@@H](OCC)C[C@@]21C )
73%

Name the reported Efficacy value associated with the compound CC#C[C@]1(O)CC[C@H]2[C@@H]3CCc4cc(C(=O)Nc5cccnc5C)ccc4[C@H]3[C@@H](OCc3ccccc3Cl)C[C@@]21C
1.7%

Could you share which Efficacy value was measured for C=CCO[C@H]1C[C@@]2(C)[C@@H](CC[C@@]2(O)C#CC)[C@@H]2CCc3cc(C(=O)Nc4cccnc4C)ccc3[C@H]21 ?
57%

Given the compound Cc1ncccc1NC(=O)c1ccc2c(c1)CC[C@@H]1[C@@H]2[C@@H](O)C[C@]2(C)[C@@H](O)CC[C@@H]12 , what is its reported Efficacy?
85%
